- ASSAY_COMMENT: yeast display, Sf9 membrane polyspecificity reagent, FACS + sequencing; frameworks hold sequencing errors
PROPERTY: polyreactivity (PSR sort gate)

- QVQLVESGGGLVQAGGSLRLSCAASGRTFGYYGMGWYRQAPGKERELVASINFSSGSTFYADSVKGRFTISRDNAKNTVYLQMNSLKPEDTAVYYCAARAKAVRTYAYNYWGQGTQVTVSS: low polyreactivity
- QVQLVESGGGLVQAGGSLRLSCAASGSIFVTNAMGWYRQAPGKEREWVAAISVSGGSTYYADSVKGRFTISRDNAKNTVYLQMNSLKPEDTAVYYCAAPGRLFSLYDYWGQGTQVTVSS: low polyreactivity
